Tested on: Staphylococcus epidermidis
Format: cell-based
Conditions: Se5 (Staphylococcus epidermidis)
Procedure: It was also tested whether compounds #63 and #285 can inhibit other coagulase-negative Staphylococcus (CNS) including S. epidermidis, S. hominis, etc. […].
TEST_READOUT: Antibiotic susceptibility

SAMPLE_SMILES	READING
CN[C@H](CC(C)C)C(=O)N[C@H]1C(=O)N[C@@H](CC(N)=O)C(=O)N[C@H]2C(=O)N[C@H]3C(=O)N[C@H](C(=O)N[C@H](C(=O)O)c4cc(O)cc(O)c4-c4cc3ccc4O)[C@H](O)c3ccc(c(Cl)c3)Oc3cc2cc(c3O[C@@H]2O[C@H](CO)[C@@H](O)[C@H](O)[C@H]2O[C@H]2C[C@](C)(N)[C@H](O)[C@H](C)O2)Oc2ccc(cc2Cl)[C@H]1O	S
CN(C)[C@@H]1C(O)=C(C(N)=O)C(=O)[C@@]2(O)C(O)=C3C(=O)c4c(O)cccc4[C@@](C)(O)[C@H]3C[C@@H]12	S
Cc1onc(-c2ccccc2)c1C(=O)N[C@@H]1C(=O)N2[C@@H]1SC(C)(C)[C@@H]2C(=O)O	R
CCCCCCCCCC(=O)N[C@@H](Cc1c[nH]c2ccccc12)C(=O)N[C@H](CC(N)=O)C(=O)N[C@@H](CC(=O)O)C(=O)N[C@@H]1C(=O)NCC(=O)N[C@@H](CCCN)C(=O)N[C@@H](CC(=O)O)C(=O)N[C@H](C)C(=O)N[C@@H](CC(=O)O)C(=O)NCC(=O)N[C@H](CO)C(=O)N[C@@H]([C@H](C)CC(=O)O)C(=O)N[C@@H](CC(=O)c2ccccc2N)C(=O)O[C@@H]1C	S
